Parameter: Ki. Scope: all listed entries.
# Target desc: Dimer of Gag-Pol polyprotein [489-587] (Human immunodeficiency virus 1)
# Construct: 489-587
# Measurement description: Protease Inhibition Assay
Report the figure in nM without appending any unit label.

Completed entries (count: 2):
[[record]]
compound = "Cc1cc(SC2C(=O)CC(CCc3ccccc3)(C(C)C)OC2=O)c(C(C)(C)C)cc1OS(=O)(=O)c1ccc(C#N)cc1 (stereo not drawn)"
test_readout = "Ki"
numeric_readout = 0.7

[[record]]
compound = "Cc1cc(SC2C(=O)C[C@@](CCc3ccccc3)(C(C)C)OC2=O)c(C(C)(C)C)cc1NS(=O)(=O)c1ccc(C(F)(F)F)cn1 (stereo partly drawn)"
test_readout = "Ki"
numeric_readout = 0.31


Okay, next one:
QUERY: What does the data say about its Ki? Entry: Cc1cc(SC2C(=O)C[C@@](CCc3ccc(O)cc3)(C(C)C)OC2=O)c(C(C)(C)C)cc1NS(=O)(=O)c1ccc(C(F)(F)F)cn1 (stereo partly drawn)
RESULT: 0.39

Where do the numbers come from? From BindingDB's records for doi:10.1021/jm990281p.
